Hey, just so you know, these numbers are from the nanobody polyreactivity screen of Harvey et al. (2022).

Assay: yeast display, Sf9 membrane polyspecificity reagent, FACS + sequencing; frameworks hold sequencing errors

PRIMARY_SEQUENCE	polyreactivity (PSR sort gate)
QVQLVESGGGLVQAGGSLRLSCAASGIIFRTNAMGWYRKAPGKEREFVAAISAGGTRTYYADSVKGRFTISRDNAKNTVYLQMNSLKPEDTAVYYCAAASGYDYWGQGTQVTVSS	high polyreactivity
QDQLVESGGGLVQAGGSLRLSCAASCFTSLIYAMGWYRQAPGKERELVASITWGGGSTYADSVKGRFTISRDNAKNTVSLLMNSLKPEDTAVYYCASLYWWYPFNYWGQGTQVTVSS	low polyreactivity
QVQLVESGGGLVQAGGSLRLSCAASGRIFYFNAMAWYRQAPGKERELVAAISGSGGDTYYADSVKGRFTISRDNAKNTVYLQMNRLKPEETAVYYCAAEVYTWGQGTQVSVSS	low polyreactivity
QVQLVESGGGLVQAGGSLRLSCAASGRTFVGYAMGWYRQAPGKERELVAAISRTGGSTYYADSVKGRFTISRDNAKNTVYLQMNSLKPEDTAVYYCAASPKRVLRESGDYWGQGTQVTVSS	high polyreactivity
QVQLVESGGGLDQAGGSLRLSCAASGFIFDYYAMGWYRQPPWKERELVAAITSGDSTNYADSVKGRFTISRDNAKNTVYLQMNSLKPEDTAVYYCATRFGDRTVSYDSWGQGTQVTVSS	low polyreactivity
QVQLVESGGGLVQAGGSLRLSCAASGSTFGRYAMGWYRQAPGKERELVAAINFNGGRTYYADSVKGRFTISRDNAKNTVYLQMNSLKPEDTAVYYCNALQQYALSRYYWGQGTQVTVSS	high polyreactivity
QVQLVESGGGLVQAGGSLRLSCAASGRIFGFYAMGWYRQAPGKERELVADITSGGSTNYADSVKGRFTISRDNAKNTVYLQMNSLKPEDTAVYYCNALSYVWYRYPGNWDEDDYWGQGTQVTVSS	low polyreactivity
QVQLVESGGGLVQAGGSLRLSCAASGRIFGRYAMGWYRQAPGKERELVAAISSSGGTTYYADSVKGRFTISRDKAKNTVYLQMNSLKPEDTAVYYCAKRGYYYGYDYWGQGTQVTVSS	high polyreactivity
QVQLVESGGGLVQAGGSLRLSCAASGITFYKYTMGWYRQAPGKERELVAAISVRGGRTYYADSVKGRFTISRDYAKNTVDLQMNSLKPEDTAVYYCAAGSQPGRKYYYWGQGTQVTVSS	high polyreactivity
QVHLVESGGGLVQAGGSLRLSCAASGSIFWANAMGWYSQAPGKERELVAAINFRATITYYADSVKGRFTISRDIAKNTFYLQMISLKPEDTAVYYCAGDSYECWYDYWGQGTEVTVSS	high polyreactivity
QVQLVESGGGLVQAGGSLRLSCAASGFTFNPNAMGWYRQAPGKERELVAPITRSGGSTYYADSVKGRFTISRDNAKNTVYLQMNSLKPEDTAVYYCNAPFRVSTTRRRYPGIDSHYYWGQGTQVTVSS	high polyreactivity
QVQLVESGGCLVQAGGSLRLSCAASGITFYEYAMGWSRQAPGKERELVAGITWSGGSTYYADSVKGRFTISRDNAKNTVYLEMNSLKPEDTAVYYCAATGAFWYPYDYWGQGTQVTVSS	high polyreactivity
QVHLVESAAGLVQAGGSLRLSCDPSGFTFYAYPMGWYSQAPGKEREFVAAISSRGGRTYYADSVKGRFTISRDNAKNTVYLQMNSLKPEDTAVYYCNVPYYSFRALSSYYWGQGTQVTVSS	high polyreactivity
QVQLVESGGGLVQAGGSLRLSCAASGRTFNRNAMGWYRQAPGKERELVAAISWSGGRTYYADSVKGRFTISRDTAKNTVYLQMNSLKPEDTAVYYCAAPGKKYWGQGTQVTVSS	high polyreactivity
QVQLVESGGGLVQEGGSLRLSCAASGRTFKKYAMGWYRQAPGKERELVAAITGSGGSTYYADSVKGRFTISRDNAKNTVYLQMNSLKPEDSAVYYCAAYAYGVWHSQDGGNYWGQGTQVTVSS	low polyreactivity
QVQLVESGGGLVHAGGSLRLSCADSGFTFGAYAMGWYRQAPGKERELVATITNSGRTYYADSVKGRFTISRDNAKNTVYLQMNSLNPEDTAVYYCAAQPDGQAMEHWGQGTQVTVSS	low polyreactivity
QVQLVESGGGFVQAGGSLRLSCAASGFIFDTYAMGWYRQAPGKERELVAAITTTGGSTYYADSVKGRFTISRDTAKNTVYLQMNSLKPEDTAVYYCAARHYRIHYDYWGQGSQVTVSS	high polyreactivity
QVQLVESGGGLVQAGGSLRLSCAASGFTFEIYAMGWYRQAPGKEREFVASISWSVGSTYYADSVKGRFTISRDNAKNTVYLQMNSLKPEDTAVYYCNADWRHKYYHSYLYDYWGQGTQVTVSS	low polyreactivity
QVQLVESGGGLVQAGGSLRLSCAASGSIIVYYAMGWYRQAPGKERELVAAIRVRGGSTYYADSVKGRFTISRDTAKNTVYLQMNSLKPEDTAVYYCATAGRYGRYRTNAYRSKYDYWGQGTQVTVSS	high polyreactivity
QVQHVESGGGLVQAGGSIRLSGAASGRIILGYDMGWYRQPPGKDRELVAAINSVASTNYADSVKGRFTISRDNAKNTVYLQMNSLKPEDTAVYYCAAVYFLVEADLPAYDYWGQGTQVTVSS	low polyreactivity
QVLLQESGGGLVQAGGSLRLSCAASGNIFTAGGMGWYRQAPVNERELVAGIGTGTSTNYADRVKGRFTISRDNAKNTVYLQMNSLKPEDTAVYYCAPAYYSGLSHWYWGQGTQVTVSS	low polyreactivity

###

Assay: yeast display, Sf9 membrane polyspecificity reagent, FACS + sequencing; frameworks hold sequencing errors

PRIMARY_SEQUENCE	polyreactivity (PSR sort gate)
QVQLVESGGGLVQAGGSLRLSCAASGRTFRLYAMGWYRQAPGKERELVAAITENGGSTYYADSVKGRFTISRDNAKNTVYLQMTSLKPEDTAVYYCAAKRYSRYNYWGQCTQVTVSS	high polyreactivity
QVQLVESGGGLVQAGGSLRLSCAASGRTLNYYAMVCYRQAPGKERELVASIDWDTGITDYADSVKGRFTISRDNAKNTVYLQMNSLKPEDSAVYYCAAVRVTKKYSYAYWGQGTQVTVSS	low polyreactivity
QVQLVESGVGLVQAGGSLRLSCASSGLTLNQYAIGWYRQAPGKERELVAAITRGGGSTYYADSVKGRFTISRDNAKYTVYLQMNSLKPEDTAVYYCATDNWWPTYHYQGGYYWGQGTQVTVSS	low polyreactivity
QVQLVESGGGLVQAGGSLRLSCAASGRTFWYYTMGWYRQAPGKERELVAANTSVGSTYYADSVKGRFTISRDNAKNTVYLQMNSLKPEDTAVYYCATLYSYTHQSFDHWGQGTQVTVSS	high polyreactivity
QDQLVESGGGLVQAGGSLLLSCAASGSTFYDYVMGWYRQAPGKERELVADISSGGGTNYADSLKGRFTISRDNAKNTVYLQMNSLKPEDTAVYYCAAYRYFFWYEFVSWGQGTQVTVSS	high polyreactivity

###

Assay: yeast display, Sf9 membrane polyspecificity reagent, FACS + sequencing; frameworks hold sequencing errors

PRIMARY_SEQUENCE	polyreactivity (PSR sort gate)
QVPLVESGGGLVQAGGSLRLSCDASGSTFFPNAMGWYRQAPGKEREFVAAISWSGGRTYYADSVKGRFTISRDNAKNTVYLQMNSLKPEDTAVYYCAARLYTVRYGYWGQGTQVTVSS	high polyreactivity
QVQLVESGGGLVQAGGSLRLSCSASGRTFTPYAMGWYRQAPGKEREFVAAISIVGRTKYADSVKGRFTISPDNAKNTFYFQMNSLKPEDTAVYYCNAQDSRDRKFYWGYTRGHWGQGTQVTVSS	low polyreactivity
QVQLVESGGGLVQAGGSLRLSCAASGFTFDTNVRGWYRQAPGKERELVAAITGPGGSTYYADSVKGRFTISRDNAKNTVYLQMNSLNPEDTAVYYCNRVYYRRRLYDYWGQGTQVTVSS	high polyreactivity
QVQLVESGGGLVQAGGSLRLSCAASGRTFTWNVMGWYRQAPGKERELVAAITTDDRTYADSVKGRFTISRDNAKNTVYLQMNILKPEDTAVYYCATVVAWSSRPVGEDYWGQGTQVTVSS	low polyreactivity
QVQLVESGGGLVQAGGSLRLSCAASGSIFKYYAMGWYRQAPGKERELVAAISSSGGSTYYADSVKWRFTISRDNAKNTVYLQMNSLKPEDTAVYYCNTPYIWKNYDYWGQGTQVTVSS	high polyreactivity
QVQLVESGGGLVQAGGSLRLSCAASGRTFGINAMRWSRQATGKERELVAAITGRSGRTYYADSVKGRFTISRDNAKYTVYLQMNSLQPEDTAVYYCAARWPVYSRRYGYWGQGTQVTVSS	high polyreactivity
QVQLVESGGGLVQAGGSLRLSCAASGRTFRRYAMGWYRQAPGKERELVATITNAGSTYYADSVKGRFTISRDNAKNTVYLQMNSLKPEDTAVYYCAARVPYISDYWGQGTQVTVSS	low polyreactivity
QVQLVESGGGLVQAGGSLRLSCAASGRIFKTNAMGWDRQGPGKERELVAGITGRSGSSYYADSVKGRFTISRDIAMNTVYLQMNSLKPEDTAVYYCAAPLYGRYSYGYWGQGNQVTVSS	high polyreactivity
QVQLVESGGGLVQAGGSLRLSCAASGSIFAVNAMGWYRQAPGKERELVAAIDWSDGITYYADSVKGRFTISRDNAKNTVYLQMNSLKPEDTAVYYCAADATAYGWYVEQFSFYDNDYWGQGTEVTVSS	high polyreactivity
QVQLVESGGGLVQAGGSLRLSCAASGRIFLINGMGWYRQAPGKERELVAVITQSGGTYYADSVKGRFTISRDNAKNTVYLQMNSLKPEDTAVYYCAASSYGASRGYWGQGTQVTVSS	high polyreactivity
QVQLVESGGGLVQAGGSLRLSCSSSGLTLYRYAMGWYRQAPGKERELVAGISWGGGSTYYADSVKGRFTISRDNAKNTVFLQMNSLKPEGNAVYYCAAGRLLYIPRYYYWGQGTQVTVSS	high polyreactivity
QVQLVESGGGLVQAGGSLRLSCAASGSIFYGYAMGWYRQAPGRERELVAAIRYRGGRTDYGDSVKGRFTISRDNAKKTVYLQMNSLKPEDTAVYYCAKDLIRYGYLTYVYWGQGTQVTVSS	high polyreactivity
QVQLVESGGGLVQAGGSLRLSCAASGFNFPRYTMGWSRKAPGKEREFVAGITLRGGSTYYADSVKGRFTISRANAKNTVYLQMNSLKPDETAVYYCARVISRGRSFGIGYDYWGQATQVTVSS	low polyreactivity
QVHLVESGGGLVQAGGSLRLSCAASGRTFHYYAMGWYRQAPGKERELVAAISVSGGSTYYADSVKGRFTISRDNAKNTVYLQMNSLKPEDNAVYYCAADDYLVEHDYWGQGTQVTVSS	low polyreactivity
QVQLEESGGGLVQAGGSLRLSCAASGIIFGTNAMGWYRQAPGKERELVATISWRGGSTYYADSVKGRFTISRDNAKNTVYLQMTSLKPEDTAVYYCAAGASGQRAYRRYYWGQGTQVTVSS	high polyreactivity
QVHLVESGGGLVQAGGSLRLSCAASGFTFYQYAMGWYRQAPGKERELVAAITASGGSTYYADSVKRRFTISRDNAKNTVYLQMNSLKPEDTAVYYCAAERYFVLYRYYSYAYYYWGQGTQVTVSS	high polyreactivity
QVQLVESGGGLVQAGGSLRLSCAASGRIFTQYTMGWYRQAPGKERELVAAISRGGGSTYYADSVKGRFTISRDNAKNTVYLQMNSLKPEDTAVYYCAAIRREVVAGDYWGQGTQVTVSS	high polyreactivity
QVQLVESGGGLVQAGGSLRLSCAASGIIFVRNVMGWYRQAPGKERELVAAITNGGSTYYADSVKGRFTISRDNAKNTVYLQMNSLQPEDTAVYYCAALTGVRRRYYYWGQGTQVTVSS	high polyreactivity
QVQLVESGGGLVQAGGSLRLSCAASGIIFPYNAMGWYRQAPGKERELVAAITGGGSTYYADSVKGRFTISRDNAKNTVYLQMNSLKPEDTAVYYCAADRSGPGYDYWGQGTQVTVSS	low polyreactivity
QVQLVESGGGLVQAGGSLRLSCAASGIIFYGYAMGWYRQAPGKERELVAAIDSGVSTNYADSVKGRFTISRDNAKNTVYLQMNSLKPEDTAVYYCAVQPWTRDNGYDYWGQGTQVTVSS	low polyreactivity
QVQLVESGGGLVQAGGSLRLSCAASGFTFYDNAMGWYRQAPGKERELVAAINWRSGSTYYADSVKGRFTISRDNAKNTVYLQMNSLKPEDTAVYYCAAGLVFHYYAPKSYYLGYDYWGQGTQVTVSS	low polyreactivity
